B1: library; numbered along this chain (parent)
chain: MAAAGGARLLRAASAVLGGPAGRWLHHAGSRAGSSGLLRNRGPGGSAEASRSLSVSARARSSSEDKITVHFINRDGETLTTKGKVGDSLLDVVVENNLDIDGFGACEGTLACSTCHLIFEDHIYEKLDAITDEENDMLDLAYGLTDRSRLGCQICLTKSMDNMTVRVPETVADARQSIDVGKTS

variants of: B1; assay: scaled log2 fold change in cell abundance, elesclomol vs control (0 = silent mean, 1 = nonsense mean) (scaled log2 ratio); higher = higher viability under elesclomol (loss of FDX1 cuproptosis function); settings: with ABC1 FDX1 KO; elesclomol 5 nM; glucose 10 mM; 14 days;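 further: variant abundance is its share of total variant reads in each endpoint sample, from next-generation sequencing of the integrated ORF PCR-amplified out of genomic DNA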
Here the recorded scaled log2 fold change is given for each entry.
Just the number, please, no unit after it.

Query block: Please supply the value of reported scaled log2 fold change for the item `D101T`
Result block: -0.218

Query block: Please list scaled log2 fold change recorded for the variant `G45M`
Result block: 0.116

Query block: Please supply the value of reported scaled log2 fold change for the item `D139N`
Result block: -0.132

Query block: Respond only with scaled log2 fold change recorded for `L79Q`
Result block: -0.224

Query block: Answer with the recorded scaled log2 fold change of `D99C` only.
Result block: 0.108

Query block: Please supply the value of reported scaled log2 fold change for the item `E95M`
Result block: 0.0861

Query block: Output measured scaled log2 fold change for this item: `A21T`
Result block: -0.223

Query block: Find the measured scaled log2 fold change of `V93H` and report it.
Result block: -0.124

Query block: Give the reported value of scaled log2 fold change for this record: `I123K`
Result block: 0.336

Query block: Supply measured scaled log2 fold change of `T131Q` in your reply.
Result block: 0.134

Query block: In one line, give reported scaled log2 fold change of the entry `E120Y` .
Result block: 0.267

Query block: Return the recorded scaled log2 fold change value; entry: `L9C`
Result block: 0.282

Query block: Supply measured scaled log2 fold change of `F71D` in your reply.
Result block: 1.1

Query block: Answer with the recorded scaled log2 fold change of `D101C` only.
Result block: -0.242

Query block: Report measured scaled log2 fold change; entry is `V92L`
Result block: 0.019

Query block: Please report scaled log2 fold change for the following variant: `T145I`
Result block: 0.244

Query block: Give the reported value of scaled log2 fold change for this record: `A172P`
Result block: -0.333

Query block: State its scaled log2 fold change: `R58A`
Result block: 0.173

Where do the numbers come from? From the supplement of paper PMC12855868.
